The measurements presented in this section are drawn from patent US20120232070A1.

# Experimental Target: hNurr1_RXRαFL (NURR1/RXRα heterodimer) (Homo sapiens, UniProt P19793+P43354)
# Sequence (P19793 whole entry, the tested form may be a part): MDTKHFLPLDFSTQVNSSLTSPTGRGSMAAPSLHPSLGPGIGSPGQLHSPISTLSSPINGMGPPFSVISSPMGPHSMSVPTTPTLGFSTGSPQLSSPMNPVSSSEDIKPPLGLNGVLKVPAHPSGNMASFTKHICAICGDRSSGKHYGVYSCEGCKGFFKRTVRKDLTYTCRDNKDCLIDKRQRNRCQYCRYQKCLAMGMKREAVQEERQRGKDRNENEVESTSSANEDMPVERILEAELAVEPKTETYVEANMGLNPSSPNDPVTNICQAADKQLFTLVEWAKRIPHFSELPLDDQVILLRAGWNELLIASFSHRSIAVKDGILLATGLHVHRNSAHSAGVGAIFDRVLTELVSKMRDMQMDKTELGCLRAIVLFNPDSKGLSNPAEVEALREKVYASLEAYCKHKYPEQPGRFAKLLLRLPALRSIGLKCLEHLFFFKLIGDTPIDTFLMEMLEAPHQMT
# Sequence (P43354 328-598): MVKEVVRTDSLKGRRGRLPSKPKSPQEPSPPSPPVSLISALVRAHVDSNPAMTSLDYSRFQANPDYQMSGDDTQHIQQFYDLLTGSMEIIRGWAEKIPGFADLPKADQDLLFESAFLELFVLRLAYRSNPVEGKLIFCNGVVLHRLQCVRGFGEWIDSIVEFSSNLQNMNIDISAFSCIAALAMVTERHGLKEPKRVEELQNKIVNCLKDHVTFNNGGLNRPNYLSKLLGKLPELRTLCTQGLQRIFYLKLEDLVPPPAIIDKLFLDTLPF
# Experiment Notes: Transactivation assay in Cos-7 cells, NURR-1-Gal4 / RXRα, luciferase reporter
# Format: cell-based
# Conditions: COS-7, read-out: hNurr1_RXRαFL Eff (%), efficacy in % relative to the reference XCT0135908 at 2·10^−5 M (=100%)
# Procedure: First, the capacity of the compounds according to the invention for acting as an activator of the heterodimers formed by the NURR-1 nuclear receptor and the RXR nuclear receptors was measured by an in vitro assay. A transactivation assay was used as a primary screening assay. […] After 24 hours, the culture medium was changed. […] After overnight incubation, luciferase expression was measured after addition of “SteadyGlo” according to the manufacturer's instructions (Promega). […]
I would appreciate it if you labelled entries 1 when Emax is 70% or higher, otherwise -1.

• O=C(O)c1ccc(Cc2cc3cc(C(F)(F)F)ccc3n2S(=O)(=O)c2cccc(-c3ccc(Cl)cc3)c2)cc1 [Example 146] = -1

Entry CCCOc1ccc(S(=O)(=O)n2c(Cc3ccc(C(=O)O)cc3)cc3cc(C(F)(F)F)ccc32)cc1 [Example 123] : is its Emax no less than 70%? -1

Kindly determine if Emax recorded for CC(C)c1ccc(S(=O)(=O)n2c(Cc3ccc(C(=O)O)s3)cc3cc(C(F)(F)F)ccc32)cc1 [Example 71] is above or exactly 70%. -1

Determine whether this molecule has Emax no lower than 70%: COc1ccc(S(=O)(=O)n2c(Cc3ccc(C(=O)O)cc3)cc3cc(Cl)ccc32)cn1 [Example 169] -1

Form field: Emax at least 70%? Entry: CC(C)c1ccc(S(=O)(=O)n2c(Cc3ccc(C(=O)O)c(O)c3)cc3cc(C(F)(F)F)ccc32)cc1 [Example 68] -1

Check this molecule for Emax at or above 70%: Cc1c(Cc2ccc(C(=O)O)s2)n(S(=O)(=O)c2cccc(C(C)(C)C)c2)c2ccc(C(F)(F)F)cc12 [Example 85] 1
